Source listed as ChEMBL document CHEMBL1759906.

- Experimental protocol: Cmax in rat at 2 mg/kg, po
- Type: ADME, organism-based
- Set-up: dose 2 mg/kg, route oral
- Condition label: in vivo
Would you mind telling me the reported Cmax of each entry?

q: Dear colleague, I am looking for the recorded Cmax of the following compound: "O=c1n(CC(F)(F)F)c2cccnc2n1[C@H]1CCCN(c2nccc(-c3ccc(Cl)s3)n2)C1"
a: 1.4 µM

q: Can you handle CCn1c(=O)n(C2CCCN(c3nccc(-c4cc5ccccc5o4)n3)C2)c2ccccc21 (stereo not drawn) next?
a: 4.4 µM

q: Can you handle "CCn1c(=O)n([C@H]2CCCN(c3cc(-c4ccc(F)cc4)nc(N)n3)C2)c2ncccc21" next?
a: 3.4 µM

---

Would you mind telling me the reported MRT of each entry?
- Experimental protocol: Mean residence time in rat at 2 mg/kg, po
- Type: ADME, organism-based
- Design: dose 2 mg/kg, route oral
- Condition label: in vivo
Return type: number; implicit unit h.

q: Dear colleague, I am looking for the recorded MRT of the following compound: "CCn1c(=O)n([C@H]2CCCN(c3cc(-c4ccc(F)cc4)nc(N)n3)C2)c2ncccc21"
a: 5.2

q: Can you handle "O=c1n(CC(F)(F)F)c2cccnc2n1[C@H]1CCCN(c2nccc(-c3ccc(Cl)s3)n2)C1" next?
a: 3.7

q: Can you handle CCn1c(=O)n(C2CCCN(c3nccc(-c4cc5ccccc5o4)n3)C2)c2ccccc21 (stereo not drawn) next?
a: 5.5

---

Would you mind telling me the reported concentration at 0.5 h of each entry?
- Experimental protocol: Drug uptake in rat brain at 0.5 mg/kg, iv after 0.5 hrs
- Format: ADME, organism-based
- Design: dose 0.5 mg/kg, route intravenous
- Condition label: read-out: Drug uptake
Return type: number; implicit unit µM.

q: Dear colleague, I am looking for the recorded concentration at 0.5 h of the following compound: "O=c1n(CC(F)(F)F)c2cccnc2n1[C@H]1CCCN(c2nccc(-c3ccc(Cl)s3)n2)C1"
a: 0.05

q: Can you handle CCn1c(=O)n(C2CCCN(c3nccc(-c4cc5ccccc5o4)n3)C2)c2ccccc21 (stereo not drawn) next?
a: 0.15

q: Can you handle "CCn1c(=O)n([C@H]2CCCN(c3cc(-c4ccc(F)cc4)nc(N)n3)C2)c2ncccc21" next?
a: 0.38

---

Measurement record for Fatty-acid amide hydrolase 1 (Homo sapiens); quantity recorded: IC50.
Return type: number; implicit unit µM.

q: Dear colleague, I am looking for the recorded IC50 of the following compound: Cc1[nH]c2ncccc2c1C1CCCN(c2nccc(-c3cc4ccccc4s3)n2)C1 (stereo not given)
a: 0.005

q: Can you handle "Cc1c([C@@H]2CCCN(c3nccc(-c4cc5ccccc5s4)n3)C2)c2cccnc2n1CCO" next?
a: 0.002

q: Can you handle CCn1c(=O)n(C2CCCN(c3nccc(-c4cc5ccccc5o4)n3)C2)c2ccccc21 (stereo not given) next?
a: 0.03

q: Can you handle CCn1c(=O)n(C2CCCN(c3nccc(-c4cc5ccccc5o4)n3)C2)c2ncccc21 (stereo not given) next?
a: 0.02

q: Can you handle Cn1c(=O)n(C2CCCN(c3nccc(-c4cc5ccccc5o4)n3)C2)c2ccccc21 (stereo not given) next?
a: 0.03

---

Would you mind telling me the reported EC50 of each entry?
- Measurement target: UniProt:O00519
- Sequence (O00519 whole entry): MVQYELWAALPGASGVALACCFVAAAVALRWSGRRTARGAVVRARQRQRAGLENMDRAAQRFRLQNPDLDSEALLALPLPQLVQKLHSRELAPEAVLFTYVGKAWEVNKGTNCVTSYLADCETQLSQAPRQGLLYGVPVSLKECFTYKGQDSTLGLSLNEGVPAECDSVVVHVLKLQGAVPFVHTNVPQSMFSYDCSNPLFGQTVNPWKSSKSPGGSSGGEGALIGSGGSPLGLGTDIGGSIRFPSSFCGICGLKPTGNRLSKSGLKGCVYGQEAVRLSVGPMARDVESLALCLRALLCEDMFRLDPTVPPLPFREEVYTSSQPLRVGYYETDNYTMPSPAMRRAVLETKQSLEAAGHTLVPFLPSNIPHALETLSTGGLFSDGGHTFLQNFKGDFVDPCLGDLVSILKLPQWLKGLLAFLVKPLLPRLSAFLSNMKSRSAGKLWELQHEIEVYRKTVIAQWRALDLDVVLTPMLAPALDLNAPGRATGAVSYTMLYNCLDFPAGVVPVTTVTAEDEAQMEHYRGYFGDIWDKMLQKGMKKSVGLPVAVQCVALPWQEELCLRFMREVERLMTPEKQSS
- Experimental protocol: Inhibition of FAAH in human T84 cell assessed as conversion of [3H]AEA to [3H]ethanolamine by scintillation counting
Respond with a number, then the unit of measure.

q: Dear colleague, I am looking for the recorded EC50 of the following compound: "O=c1n(CC(F)(F)F)c2cccnc2n1[C@H]1CCCN(c2nccc(-c3ccc(Cl)s3)n2)C1"
a: 2 nM

q: Can you handle "CCn1c(=O)n([C@H]2CCCN(c3cc(-c4ccc(F)cc4)nc(N)n3)C2)c2ncccc21" next?
a: 20 nM

q: Can you handle "CCn1c(=O)n([C@H]2CCCN(c3nccc(-c4cccs4)n3)C2)c2ncccc21" next?
a: 350 nM

q: Can you handle "CCn1c(=O)n([C@H]2CCCN(c3nccc(-c4ccc(Cl)s4)n3)C2)c2ncccc21" next?
a: 3 nM
